All values here come from ChEMBL document CHEMBL1158511.

# Ki values compiled below
Target: 5-hydroxytryptamine receptor 2B (Homo sapiens, UniProt P41595)
Sequence (P41595 whole entry): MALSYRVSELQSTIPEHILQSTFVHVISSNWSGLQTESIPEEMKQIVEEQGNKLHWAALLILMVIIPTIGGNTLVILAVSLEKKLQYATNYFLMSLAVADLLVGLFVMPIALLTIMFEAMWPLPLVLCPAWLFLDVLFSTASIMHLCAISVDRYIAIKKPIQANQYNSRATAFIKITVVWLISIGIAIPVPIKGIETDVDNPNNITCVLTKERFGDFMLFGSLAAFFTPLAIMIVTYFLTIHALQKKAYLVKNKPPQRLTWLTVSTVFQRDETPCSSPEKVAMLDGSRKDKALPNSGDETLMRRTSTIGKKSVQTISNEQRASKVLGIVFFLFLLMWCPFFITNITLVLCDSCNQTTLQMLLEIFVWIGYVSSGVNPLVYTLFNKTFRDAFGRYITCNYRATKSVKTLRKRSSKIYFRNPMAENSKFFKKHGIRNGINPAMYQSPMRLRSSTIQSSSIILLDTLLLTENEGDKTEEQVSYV
Experiment: Displacement of [3H]LSD from human recombinant 5HT2B receptor expressed in HEK293E cells
MEASUREMENT_LABEL: Ki (nM)

# COMPOUND, MEASUREMENT_LABEL, QUALIFIER_SYMBOL, MEASURED_NUMBER
rows = [
    ("Cc1cccc2c1N1CCNCC1NC2=O (stereo unspecified)", "Ki", "=", 2390),
    ("Cc1cccc2c1C(=O)NC1CNCCN21 (single isomer, unassigned; (+))", "Ki", "=", 8.6),
    ("O=C1NC2CNCCN2c2cccc(C(F)(F)F)c21 (single isomer, unassigned)", "Ki", "=", 13),
    ("O=C1NC2CNCCN2c2c(Cl)cccc21 (stereo unspecified)", "Ki", ">", 10000),
    ("Cc1ccc2c(c1)C(=O)NC1CNCCN21 (single isomer, unassigned)", "Ki", "=", 61),
    ("O=C1NC2CNCCN2c2cccc(Cl)c21 (stereo unspecified)", "Ki", "=", 18),
]
